Ref: patent EP0005015B1

Test: Acute oral toxicity (LD50)
Conditions: mouse, in vivo; mice, per oral
measure: LD50

Exercise: Look up LD50 for this molecule: CCCCn1c(=O)c2c(ncn2CC(C)=O)n(CCCC)c1=O [Compound A, 1,3-di-n-butyl-7-(2-oxopropyl)xanthine]
Key: > 1000 mg/kg
